System: Morganella morganii EP-14
Assay: Anti-bacterial activity (MIC), agar dilution
Format: cell-based
Details: Morganella morganii, EP14, 18 h, about 10^6 CFU/ml, 37° C., read-out: MIC
The reader will find reported MIC values listed item by item below.

Compound	Property name	Result
C[N+]1(C/C=C/C2=C(C(=O)[O-])N3C(=O)[C@@H](NC(=O)/C(=N\OCF)c4nsc(N)n4)[C@H]3SC2)CCN(C(N)=O)CC1 [Example 121]	MIC	≤ 0.025 µg/mL
C[N+](C)(C/C=C/C1=C(C(=O)[O-])N2C(=O)[C@@H](NC(=O)/C(=N\OCF)c3nsc(N)n3)[C@H]2SC1)CC(=O)NO [Example 72]	MIC	≤ 0.025 µg/mL
CN1CCC[N+]1(C)C/C=C/C1=C(C(=O)[O-])N2C(=O)[C@@H](NC(=O)/C(=N\OCC#N)c3nsc(N)n3)[C@H]2SC1 (single isomer, unassigned) [Example 160-A]	MIC	0.05 µg/mL
NCC[N+]1(C/C=C/C2=C(C(=O)[O-])N3C(=O)[C@@H](NC(=O)/C(=N\OCF)c4nsc(N)n4)[C@H]3SC2)CCCC1 [Example 22]	MIC	0.05 µg/mL

May I ask what MIC has been recorded for CC(O)C[N+](C)(C)CC=CC1=C(C(=O)[O-])N2C(=O)C(NC(=O)C(=NOCF)c3nsc(N)n3)C2SC1 (centres unmarked) [Example 65] ? ≤ 0.025 µg/mL

Quick one: MIC of C[N+]1(CC=CC2=C(C(=O)[O-])N3C(=O)C(NC(=O)C(=NOCF)c4nsc(N)n4)C3SC2)CC(O)CC1CO (centres unmarked) [Example 89-1] ? ≤ 0.025 µg/mL

Please report the recorded MIC for C[N+](C)(C/C=C/C1=C(C(=O)[O-])N2C(=O)[C@@H](NC(=O)/C(=N\OCF)c3nsc(N)n3)[C@H]2SC1)CC(N)=O [Example 118] . ≤ 0.025 µg/mL

Fill in the blank: the reported MIC of C[N+](C)(C/C=C/C1=C(C(=O)[O-])N2C(=O)[C@@H](NC(=O)/C(=N\OCF)c3nsc(N)n3)[C@H]2SC1)CCC(N)=O [Example 93] is ____. ≤ 0.025 µg/mL

What value of MIC has been recorded for this entry: N#CCO/N=C(\C(=O)N[C@@H]1C(=O)N2C(C(=O)[O-])=C(/C=C/C[N+]34CCN(CC3)CC4)CS[C@H]12)c1nsc(N)n1 [Example 157] 0.1 µg/mL

Consider the compound CC[N+](CC)(C/C=C/C1=C(C(=O)[O-])N2C(=O)[C@@H](NC(=O)/C(=N\OCF)c3nsc(N)n3)[C@H]2SC1)CC(N)=O [Example 96] and give its measured MIC. ≤ 0.025 µg/mL

Could you tell me which MIC is on file for Nc1nc(/C(=N/OCF)C(=O)N[C@@H]2C(=O)N3C(C(=O)[O-])=C(/C=C/C[n+]4ccc(C(=O)N5CCOCC5)cc4)CS[C@H]23)ns1 [Example 108] ? 0.05 µg/mL

For the compound shown here, C[N+]1(C/C=C/C2=C(C(=O)[O-])N3C(=O)[C@@H](NC(=O)/C(=N\OCF)c4nsc(N)n4)[C@H]3SC2)CCCC1 [Example 126] , give the reported MIC. ≤ 0.025 µg/mL
